target.or.system: h MMP12 (Homo sapiens, UniProt P39900)
Sequence (P39900 106-470): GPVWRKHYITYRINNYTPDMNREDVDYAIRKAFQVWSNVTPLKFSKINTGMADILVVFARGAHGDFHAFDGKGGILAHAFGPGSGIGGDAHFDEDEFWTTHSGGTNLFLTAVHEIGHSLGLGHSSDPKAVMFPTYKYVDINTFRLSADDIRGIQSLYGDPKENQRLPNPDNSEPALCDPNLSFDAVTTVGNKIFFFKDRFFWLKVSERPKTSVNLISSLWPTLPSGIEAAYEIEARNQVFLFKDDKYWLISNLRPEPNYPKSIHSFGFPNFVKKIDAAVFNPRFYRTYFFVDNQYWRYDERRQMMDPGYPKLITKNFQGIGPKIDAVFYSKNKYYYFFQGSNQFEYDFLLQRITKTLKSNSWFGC
experiment.summary: Evaluation of cleavage of candidate peptides by MMP12 (UPLC)
Assay type: biochemical
test.parameters: summary of Table 3
Where no end group is shown, it is not given here.
result.type: cleavage rate by MMP12 (in words: low / medium / high)

>>> print(df.to_string())
                         construct_sequence  endpoint_result
0  SFSSSRNLQERL (not fully specified; also: 5-carboxyfluorescein label) [No. 06]   medium to high
1  APIANELRSQSLQT (not fully specified; also: 5-carboxyfluorescein label) [No. 17]             high
2  RQAFNEKIRVVHQL (not fully specified; also: 5-carboxyfluorescein label) [No. 15]              low
3  SRNLQERLRRKE (not fully specified; also: 5-carboxyfluorescein label) [No. 05]   medium to high

###

target.or.system: h MMP12 (Homo sapiens, UniProt P39900)
experiment.summary: Evaluation of cleavage of candidate peptides by MMP12 (UPLC)
Format: biochemical
test.parameters: activated h MMP12 2.0 ng/μL mixed 1:1 with 40 μM peptide, 37° C., 16 hours; UPLC peak area before/after, 440 nm
Protocol: The evaluation of cleavage of candidate peptides by MMP12 was performed as follows. On the first day, h MMP12 was diluted to 50 μg/mL with an assay buffer. […] On the third day, 100 μL of acetonitrile was added to the mixture from the second day. After centrifugation for 10 minutes, the supernatant was collected, and 10 μL of the supernatant was analyzed using ultra high performance liquid chromatography (UPLC). […]
Where no end group is shown, it is not given here.
Respond with Satisfied for Cleavage rate (%) of each candidate peptide by MMP12 values of 60% and above, Not satisfied for values below.

Reference set, count: 6
>>> print(df.to_string())
                         construct_sequence  assigned_label
0  STNLQESLRRKE (not fully specified; also: 5-carboxyfluorescein label) [No. 07]       Satisfied
1                   DKVWQDYIKDMKEN [No. 02]   Not satisfied
2  SRNLQERLRRKE (not fully specified; also: 5-carboxyfluorescein label) [No. 05]   Not satisfied
3  ASVVTELRSQSLQT (not fully specified; also: 5-carboxyfluorescein label) [No. 20]       Satisfied
4  APRIKKIVQKKLAG (not fully specified; also: 5-carboxyfluorescein label) [No. 19]   Not satisfied
5  APIANELRSQSLQT (not fully specified; also: 5-carboxyfluorescein label) [No. 17]       Satisfied

Query: Dear colleague, could you confirm whether PAAAVLRELRSVS (not fully specified; also: 5-carboxyfluorescein label) [No. 22] has Cleavage rate (%) of each candidate peptide by MMP12 at or above 60%?
Response: Satisfied

###

target.or.system: h MMP12 (Homo sapiens, UniProt P39900)
experiment.summary: Evaluation of cleavage of candidate peptides by MMP12 (UPLC)
Assay type: biochemical
test.parameters: UPLC after incubation with h MMP12, 37° C., 16 hours
Method: The evaluation of cleavage of candidate peptides by MMP12 was performed as follows. On the first day, h MMP12 was diluted to 50 μg/mL with an assay buffer. […] On the third day, 100 μL of acetonitrile was added to the mixture from the second day. After centrifugation for 10 minutes, the supernatant was collected, and 10 μL of the supernatant was analyzed using ultra high performance liquid chromatography (UPLC). […]
Where no end group is shown, it is not given here.
result.type: Number of cleavage peaks, Test
Format: numeric value only, no unit, no commentary.

>>> print(df.to_string())
                         construct_sequence                     result_type  endpoint_result
0  APIANELRSQSLQT (not fully specified; also: 5-carboxyfluorescein label) [No. 17]  Number of cleavage peaks, Test                1

Query: For SLSFSTNLQKRL (not fully specified; also: 5-carboxyfluorescein label) [No. 04] , write its Number of cleavage peaks, Test.
Response: 1

Query: For DKVWQDYIKDMKEN [No. 02] , write its Number of cleavage peaks, Test.
Response: 1

Query: For LNVQRKAIHELIQV (not fully specified; also: 5-carboxyfluorescein label) [No. 11] , write its Number of cleavage peaks, Test.
Response: 2

Query: For SRNLQERLRRKE (not fully specified; also: 5-carboxyfluorescein label) [No. 05] , write its Number of cleavage peaks, Test.
Response: 1

Query: For APRIKKIVQKKLAG (not fully specified; also: 5-carboxyfluorescein label) [No. 19] , write its Number of cleavage peaks, Test.
Response: 1

Query: For PAAAVLRELRSVS (not fully specified; also: 5-carboxyfluorescein label) [No. 22] , write its Number of cleavage peaks, Test.
Response: 3

Query: For STNLQESLRRKE (not fully specified; also: 5-carboxyfluorescein label) [No. 07] , write its Number of cleavage peaks, Test.
Response: 2

Query: For PESSLRKRKRSR (not fully specified; also: 5-carboxyfluorescein label) [No. 16] , write its Number of cleavage peaks, Test.
Response: 1

Query: For SFSSSRNLQERL (not fully specified; also: 5-carboxyfluorescein label) [No. 06] , write its Number of cleavage peaks, Test.
Response: 1

Query: For ASVVTELRSQSLQT (not fully specified; also: 5-carboxyfluorescein label) [No. 20] , write its Number of cleavage peaks, Test.
Response: 2

Query: For RQAFNEKIRVVHQL (not fully specified; also: 5-carboxyfluorescein label) [No. 15] , write its Number of cleavage peaks, Test.
Response: 1

###

target.or.system: h MMP12 (Homo sapiens, UniProt P39900)
experiment.summary: Evaluation of cleavage of candidate peptides by MMP12 (UPLC)
Assay type: biochemical
test.parameters: summary of Table 3
Method: The evaluation of cleavage of candidate peptides by MMP12 was performed as follows. On the first day, h MMP12 was diluted to 50 μg/mL with an assay buffer. […] On the third day, 100 μL of acetonitrile was added to the mixture from the second day. After centrifugation for 10 minutes, the supernatant was collected, and 10 μL of the supernatant was analyzed using ultra high performance liquid chromatography (UPLC). […]
Where no end group is shown, it is not given here.
result.type: cleavage rate by MMP12 (in words: low / medium / high)

Record excerpt, results attached:
In [3]: df
Out[3]:
                         construct_sequence  endpoint_result
0  LNVQRKAIHELIQV (not fully specified; also: 5-carboxyfluorescein label) [No. 11]             high
1  ASVVTELRSQSLQT (not fully specified; also: 5-carboxyfluorescein label) [No. 20]             high
2                   DKVWQDYIKDMKEN [No. 02]           medium
3  PAAAVLRELRSVS (not fully specified; also: 5-carboxyfluorescein label) [No. 22]             high

# input for lookup
Query: For SLSFSTNLQKRL (not fully specified; also: 5-carboxyfluorescein label) [No. 04] , write its cleavage rate by MMP12 (in words: low / medium / high).
Response: medium

###

target.or.system: h MMP12 (Homo sapiens, UniProt P39900)
experiment.summary: Evaluation of cleavage of candidate peptides by MMP12 (UPLC)
Assay type: biochemical
test.parameters: activated h MMP12 2.0 ng/μL mixed 1:1 with 40 μM peptide, 37° C., 16 hours; UPLC peak area before/after, 440 nm
Where no end group is shown, it is not given here.
Catalogue of Cleavage rate (%) of each candidate peptide by MMP12 readings, one per entry.
# value in %; strip the unit string

Record excerpt, results attached:
                         construct_sequence  result_units  endpoint_result
0  LNVQRKAIHELIQV (not fully specified; also: 5-carboxyfluorescein label) [No. 11]             %            100.0
1  RQAFNEKIRVVHQL (not fully specified; also: 5-carboxyfluorescein label) [No. 15]             %             10.5
2  SLSFSTNLQKRL (not fully specified; also: 5-carboxyfluorescein label) [No. 04]             %             53.5

Query: Find Cleavage rate (%) of each candidate peptide by MMP12 for SFSSSRNLQERL (not fully specified; also: 5-carboxyfluorescein label) [No. 06] on h MMP12 (Homo sapiens, UniProt P39900) and write it down.
Response: 90.3
